Target: T1, human serum albumin (human, UniProt P02768 25-609)
T1 construct: Bought protein, immobilized on a CM5 chip by amine coupling; also called Human SA
Assay: SPR (Biacore 8K), albumin immobilized on CM5 chip, 25 C, 1:1 kinetic fit
value.kind: Kd (pM)
Numeric answer only, unit pM assumed.

INSERT INTO results (binder, test_result) VALUES
  ('RLN Analog 7 (other, Single-chain fusion: VHH - (G4Q)5 L1 - RLN2 B chain (desB1) - L2 - RLN2 A chain) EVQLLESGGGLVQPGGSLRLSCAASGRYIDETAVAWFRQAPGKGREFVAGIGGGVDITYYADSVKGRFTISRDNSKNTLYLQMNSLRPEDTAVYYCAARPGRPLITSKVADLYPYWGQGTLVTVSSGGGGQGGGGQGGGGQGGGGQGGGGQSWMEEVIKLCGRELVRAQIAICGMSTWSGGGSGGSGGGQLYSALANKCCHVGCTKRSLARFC', 63);

Now for the binder whose Kd we want.
IN: # input binder: RLN Analog 3 (other, Single-chain fusion: VHH - (G4Q)5 L1 - RLN2 B chain (desB1) - L2 - RLN2 A chain) EVQLLESGGGLVQPGGSLRLSCAASGRYIDETAVAWFRQAPGKEREFVAGIGGGVDITYYADSVKGRFTISRDNSKNTLYLQMNSLRPEDTAVYYCAARPGRPLITSKVADLYPYWGQGTLVTVSSGGGGQGGGGQGGGGQGGGGQGGGGQSWMEEVIKLCGRELVRAQIAICGMSTWSGGGSGGSGGGQLYSALANKCCHVGCTKRSLARFC ; wanted: its Kd
OUT: 76
